Entries annotated with measured inhibition
biological target: L-lactate dehydrogenase (Plasmodium falciparum (isolate CDC / Honduras)) (UniProt Q27743); assay: PfLDH activity inhibition – cell lysate, 3D7 strain, counter-screen for P. falciparum growth inhibition project (AID 2304);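 note: 0% = vehicle and 100% = reference inhibitor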; details: P. falciparum 3D7 crude extract, LDH APAD/NBT absorbance; at 2 µM; active compounds read high
Sequence (Q27743 whole entry, looked up): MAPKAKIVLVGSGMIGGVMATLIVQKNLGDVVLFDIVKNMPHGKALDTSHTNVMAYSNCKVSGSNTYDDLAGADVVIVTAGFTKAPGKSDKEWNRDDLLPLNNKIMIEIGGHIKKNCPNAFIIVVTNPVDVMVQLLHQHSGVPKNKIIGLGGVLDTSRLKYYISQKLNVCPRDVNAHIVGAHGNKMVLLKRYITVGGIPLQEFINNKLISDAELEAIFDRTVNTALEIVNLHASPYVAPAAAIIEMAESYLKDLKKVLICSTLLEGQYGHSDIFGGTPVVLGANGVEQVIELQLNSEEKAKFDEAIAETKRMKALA
Give the quantity in %, number only.

- structure.smiles.string: "Nc1ccnc2ccc(NC(=O)CCCCCc3ccccc3)cc12"
  measurement.unit: "%"
  inhibition: 3

In: If you can, please state the reported inhibition value of CCOc1cc(CC)ccc1C1CCN(CCN2CCC(NC(=O)c3ccc(-c4ccc(C(C)=O)cc4)cc3)CC2)CC1 .
Out: -1

In: Tell me the measured inhibition of CCCC(=O)Nc1ccc(OCCCN(Cc2ccccc2F)c2ccc(C#N)c(C(F)(F)F)c2)cc1 , please.
Out: 1
